TESTED SYSTEM: Voltage-gated potassium channel subunit beta-2 (Rattus norvegicus) (UniProt P62483)
Sequence (P62483 whole entry, looked up): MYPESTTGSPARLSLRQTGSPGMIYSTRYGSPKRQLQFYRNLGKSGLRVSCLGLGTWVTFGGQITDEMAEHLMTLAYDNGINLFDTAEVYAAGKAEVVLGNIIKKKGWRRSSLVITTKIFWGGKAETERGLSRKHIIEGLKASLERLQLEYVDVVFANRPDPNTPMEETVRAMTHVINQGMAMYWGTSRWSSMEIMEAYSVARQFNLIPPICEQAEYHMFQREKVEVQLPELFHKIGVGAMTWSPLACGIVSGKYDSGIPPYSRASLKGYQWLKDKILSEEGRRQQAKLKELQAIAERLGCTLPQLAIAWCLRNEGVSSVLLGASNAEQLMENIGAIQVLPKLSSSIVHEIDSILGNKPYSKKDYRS
ASSAY METHOD TEXT: KvBeta positive modulators, primary screen, biochemical, NADPH fluorescence (AID 623);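 also: fluorescence intensity change per second fitted from 20 to 320 s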
EXPERIMENTAL SETUP: Recombinant KvBeta, NADPH fluorescence decrease slope, 10 min; at 10 µM; stronger effect = lower value
OBSERVATION TYPE: NADPH fluorescence slope
Form field (numeric): enter value without unit.

Some solved cases for reference:
Determine from records and report NADPH fluorescence slope for CC(=O)N=c1sc(S(N)(=O)=O)nn1C
-6.4e-05

Quickly give me recorded NADPH fluorescence slope for CCc1cccc(CC)c1N(COC)C(=O)Cn1nnc2ccccc21
-2.8e-05

Quote NADPH fluorescence slope reported for Cc1c(Cl)cccc1Nc1ccccc1C(=O)O please.
-4.7e-06

Now look at this entry.
Let me know recorded NADPH fluorescence slope for COc1cc(C2C(C(=O)c3ccc(C)o3)=C(O)C(=O)N2c2cc(C)on2)cc(OC)c1OC (centres undefined) , thanks.
-9.6e-06

###

TESTED SYSTEM: Muscarinic acetylcholine receptor M4 (Homo sapiens) (UniProt P08173)
Sequence (P08173 whole entry, looked up): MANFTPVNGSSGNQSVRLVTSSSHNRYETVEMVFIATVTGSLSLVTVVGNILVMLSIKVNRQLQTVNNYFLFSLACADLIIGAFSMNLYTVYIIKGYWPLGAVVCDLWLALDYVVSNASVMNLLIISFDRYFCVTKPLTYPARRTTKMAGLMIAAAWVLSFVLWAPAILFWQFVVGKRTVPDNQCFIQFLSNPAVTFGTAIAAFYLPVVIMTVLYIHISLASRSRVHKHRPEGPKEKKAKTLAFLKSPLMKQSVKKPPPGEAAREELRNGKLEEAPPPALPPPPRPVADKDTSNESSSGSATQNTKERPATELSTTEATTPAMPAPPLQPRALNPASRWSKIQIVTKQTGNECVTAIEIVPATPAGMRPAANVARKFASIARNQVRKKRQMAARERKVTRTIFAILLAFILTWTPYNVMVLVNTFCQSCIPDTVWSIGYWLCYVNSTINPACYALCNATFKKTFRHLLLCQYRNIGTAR
ASSAY METHOD TEXT: compounds altering M4/GIRK thallium flux, either direction, primary screen, M4 allosteric agonist project, cell-based, HEK293 M4/GIRK, BTC-AM (AID 625);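 also: thallium influx through GIRK channels coupled to M4 in HEK293 cells with BTC-AM dye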
EXPERIMENTAL SETUP: at 10 µM, actives lie on both sides
// label = 1 if fluorescence slope is not less than 0.005, otherwise -1

Exam item: decide whether the reported fluorescence slope for O=C(CCN1C(=O)c2ccccc2C1=O)OCN1C(=O)c2ccccc2C1=O is at least 0.005.
1

***
Could you please find out whether C=C(C)C1Cc2c(C)nn(-c3nc(C)cc(C)n3)c2C1 (configuration not stated) has fluorescence slope that meets 0.005 or exceeds it?
1

Has COc1cc2[nH]c3c(=O)n(CCN(C(C)C)C(C)C)cnc3c2cc1OC a recorded fluorescence slope greater than or equal to 0.005?
1

Hello, I need to know if Cc1cc(C)n(Cc2cc(C)c(Cn3nc(C)cc3C)cc2C)n1 has measured fluorescence slope not below 0.005. Thanks!
1

Can O=C1C2ON(c3ccccc3)C(c3cccnc3)C2C(=O)N1c1ccccc1 (configuration not stated) be said to have fluorescence slope at or above 0.005?
1

Check the entry COC(=O)C(NC(C)=O)(Nc1nc2c(s1)CCCC2)C(F)(F)F (configuration not stated) : does fluorescence slope equal or exceed 0.005?
1

fluorescence slope >= 0.005 for Cc1nnc(SCC(=O)N2CCC(C(N)=O)CC2)s1 ?
1

Hi, just wondering whether COc1ccc(N2CCN(c3nc4c(c(=O)[nH]c(=O)n4C)n3CCCc3ccccc3)CC2)cc1 shows fluorescence slope of 0.005 or higher.
1

Hello, I need to know if Cc1nnc2n(-c3ccccc3)c(=O)c3c4c(sc3n12)CCCC4 has measured fluorescence slope not below 0.005. Thanks!
-1

Could you please find out whether CCSc1nnc(NC(=O)C(CC)(C(F)(F)F)C(F)(F)F)s1 has fluorescence slope that meets 0.005 or exceeds it?
1

// inclusive: fluorescence slope at least 0.005? input: CCOC(=O)c1ccc(CC2S/C(=C(\C#N)C(C)=O)NC2=O)cc1 (configuration not stated)
1

fluorescence slope >= 0.005 for COc1ccc(CCn2c(=N)c(C#N)cc3c(=O)n4ccccc4nc32)cc1 ?
1

Check if fluorescence slope >= 0.005 (inclusive). Item: CCN(CC)CCCN1C(=O)C(=O)/C(=C(/O)c2ccccc2)C1c1ccccn1 (configuration not stated)
1

###

ASSAY METHOD TEXT: inhibitors of E-selectin induction by TNFa, primary screen, imaging, HUVEC, immunofluorescence, MLSMR starter and 10KST1 sets (AID 487);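 as to inhibition: signal is fraction of cell area covered by stained E-selectin grains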
EXPERIMENTAL SETUP: HUVEC TNFalpha-induced E-selectin immunofluorescence imaging, at 2 µM; stronger effect = higher value
Short version: inhibition at least -60% is Yes, less is No.

hey, is inhibition for this one >= -60%? N#CC1(c2ccccc2)CCC(=NO)CC1 (stereo not given)
Yes

***
For this compound, is measured inhibition -60% or higher? N=c1c2c(-c3ccccc3)c(-c3ccccc3)n(Cc3ccccc3)c2ncn1CCCn1ccnc1
Yes

Please check the record COc1ccc(C2CC(=O)C(C=NCCN3CCOCC3)=C(O)C2)cc1 (stereo not given) and state if its inhibition is at or above -60%.
No

Does the reported inhibition for Cc1oc2cc(O)cc(C)c2c(=O)c1-c1cnn(-c2ccccc2)c1 fall at or above the -60% mark?
No

###

ASSAY METHOD TEXT: inhibitors of E-selectin induction by TNFa, primary screen, imaging, HUVEC, immunofluorescence, MLSMR starter and 10KST1 sets (AID 487);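 as to nuclei count: 100% = median nuclei count of all wells on the same plate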
EXPERIMENTAL SETUP: HUVEC TNFalpha-induced E-selectin immunofluorescence imaging, at 2 µM; measured here: cell number, toxicity
OBSERVATION TYPE: nuclei count (%)
// note: answer is a bare numeric in %

Read off the recorded nuclei count for NCc1ccc(S(N)(=O)=O)cc1
118

Return value of nuclei count for input Cc1csc2nc(CSc3nc4ccccc4o3)cn12 , no commentary.
108

Using the record for CCOc1ccc(/C(O)=C2/C(=O)C(=O)N(CCN(CC)CC)C2c2ccco2)cc1 (stereo not drawn) , state its measured nuclei count.
136

Output nuclei count of COC(=O)Cn1cc(C(=O)OC)cc(Br)c1=O
136

Give the measured nuclei count for O=C(OCC#CCSc1nnc(-c2ccccc2)o1)c1cccs1
132

***
Consider the molecule COc1nc(NS(=O)(=O)c2ccc(C)cc2)nc(C)c1Cl and give its recorded nuclei count.
170

Give a short answer stating reported nuclei count for CC(C)CC(=O)Nc1ncnc2c1C(=O)CC(C)(C)C2 .
167

Recall and state the measured nuclei count for N#CCSc1nc2sc3c(c2c(=O)n1C1CCCCC1)CCCC3 .
167

Identify the reported nuclei count for the following entry. c1ccc(-c2nnc(OCCN3CCOCC3)c3ccccc23)cc1
126

###

TESTED SYSTEM: Dual specificity protein phosphatase 6 (Homo sapiens)
ASSAY METHOD TEXT: DUSP6 inhibitors restoring Erk phosphorylation by chemical complementation, primary imaging in DUSP6-transfected HeLa (AID 609);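 also: phospho-Erk level distribution per well compared with pooled transfected vehicle control wells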
EXPERIMENTAL SETUP: HeLa MKP-3 transfected, phospho-Erk imaging KS statistic; at 10 µM; stronger effect = higher value; cells stimulated with TPA for 15 min
Active and inactive are the calls of the source.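 The calls were made as follows: active = compounds giving at least 50% inhibition in the cell-based MKP-3 phosphatase rescue imaging test; inactive = the rest.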
# inhibition per entry

Worked examples, 10 molecules total:
Provide only the value of recorded inhibition for CC12CCC(C(=O)N(CCC#N)CCC#N)(CC1=O)C2(C)C (stereo not given)
-12.3% (inactive)

Retrieve inhibition measured for COC(=O)Cn1cc(C(=O)OC)cc(Br)c1=O and print it.
-8.76% (inactive)

Answer with reported inhibition of C/C(CC1(O)C(=O)N(Cc2ccccc2)c2ccccc21)=N\O (stereo not given)
-7.79% (inactive)

Give inhibition for C=CCOc1nc2c(c(=O)n(C)c(=O)n2C)n1Cc1ccc(Cl)cc1
27.5% (inactive)

Give the reported inhibition for this molecule. CC(C)Oc1ccc(/C(O)=C2/C(=O)C(=O)N(CCN(C)C)C2c2ccco2)cc1 (stereo not given)
-1.12% (inactive)

Dear colleague, please send me the reported inhibition for COc1nc(N(C)S(=O)(=O)c2ccc(C)cc2)nc(C)c1Cl when you can.
7.73% (inactive)

Answer with reported inhibition of Cc1cc(OCCN2CCOCC2)nc2ccccc12
-10.5% (inactive)

Fill in inhibition for record Cc1[nH]nc2c1C(CCc1ccccc1)C(C#N)=C(N)O2 (stereo not given)
-9.7% (inactive)

Give the reported value of inhibition for this record: CCc1c(C(=O)O)[nH]c2ccc(Br)cc12
-7.01% (inactive)

Provide inhibition value for the following molecule: CC1(C)Cc2c(C#N)c(N3CCOCC3)nc(-c3ccccc3)c2CO1
3.66% (inactive)

---
Give reported inhibition value for CCCCCCn1c(C(C)O)nc2ccccc21 (stereo not given)
11.9% (inactive)

Give the reported value of inhibition for this record: COc1ccc(-c2nnc3sc(-c4ccccc4OC)nn23)cc1
-11.5% (inactive)

Look up and report measured inhibition for this entry: CCN(CC)c1ccc2c(C)c(-c3ccc(N)cc3)c(=O)oc2c1
-4.78% (inactive)

Tell me measured inhibition for C=CCc1ccccc1OCC(O)CNC(C)C (stereo not given) please.
7.39% (inactive)

Give a short answer stating reported inhibition for NS(=O)(=O)c1cc2c(cc1C(F)(F)F)NC(Cc1ccccc1)NS2(=O)=O (stereo not given) .
-0.493% (inactive)

State its inhibition: CCCOC(=O)CSC1=C(C#N)C(c2ccccc2OC)C(C#N)C(=O)N1 (stereo not given)
-2.07% (inactive)

Supply measured inhibition of CC(C[N+](C)(C)C)OC(N)=O (stereo not given) in your reply.
5.42% (inactive)

Tell me its inhibition given Cc1ccc(N(CC(O)CN2CCCC2)S(=O)(=O)c2ccc(C)cc2)cc1 (stereo not given) as the entry.
13.2% (inactive)

Retrieve inhibition measured for CN(C)CCOc1ccccc1Cc1ccccc1 and print it.
10.2% (inactive)

# return recorded inhibition for input CSc1nc(O)c(Cc2ccccc2)c(=O)[nH]1
1.6e-07% (inactive)
